Target: M. pneumoniae binding to laminin
Experiment: Inhibition of M. pneumoniae binding to laminin adsorbed on plastic
Conditions: oligosaccharide concentrations as sialic acid; read-out: I.D.50, substrate laminin
READOUT_NAME: pIC50
Would you please state pIC50, meaning minus log10 of the concentration in mol/L, as a bare number?

Task: Give its pIC50 value. Item: CC(=O)NC1C(O)CC(OC2C(O)C(CO)OC(OC3C(CO)OC(O)C(O)C3O)C2O)(C(=O)O)OC1C(O)C(O)CO (centres unmarked)
Result: 3.52

====

Molecular target: M. pneumoniae binding to sulfatide
Assay: Inhibition of M. pneumoniae binding to sulfatide adsorbed on plastic
Details: oligosaccharide concentrations as sialic acid; read-out: I.D.50, substrate sulfatide
pIC50: −log10 of the molar value.
READOUT_NAME: pIC50

Task: Enter reported pIC50 observed with M. pneumoniae binding to sulfatide for CC(=O)NC1C(O)CC(OC2C(O)C(CO)OC(OC3C(CO)OC(O)C(O)C3O)C2O)(C(=O)O)OC1C(O)C(O)CO (stereo not shown)
Result: < 2.30
